Method description: Inhibition of amyloid beta (1-40) aggregation by thioflavin T based fluorometric assay
pIC50: −log10 of the molar value.
# Lookup of reported pIC50 keyed by entry

{"Compound": "CCN(CCCCCCNC1=CC(=O)C(NCCCCCCN(CC)Cc2ccccc2OC)=CC1=O)Cc1ccccc1OC [MEMOQUIN]", "pIC50": 5.23}
{"Compound": "CN(C)[C@@H]1C(O)=C(C(N)=O)C(=O)[C@@]2(O)C(O)=C3C(=O)c4c(O)cccc4[C@@](C)(O)[C@H]3C[C@@H]12 [TETRACYCLINE]", "pIC50": 4.22}
